- test_method_notes: chemical genetic growth profiling, strain panel (AID 1159580);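 further: tested at 20 µM; growth read once vehicle control cultures reached saturation at 30 °C; 1 = growth at the plate median or of vehicle wells; lower values mean less growth of the strain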
- conditions: S. cerevisiae deletion strains, growth OD, locus YGL248W, strain PDE1, hits give low values
About 2,000 (36%) of roughly 5,500 compounds were called active. Not shown: some 18% with an inconclusive outcome. Some of the results follow.
Decision: normalized growth beneath 1 gives fulfilled; normalized growth meeting or exceeding 1 gives not fulfilled.

Study these solved cases before continuing.
C#C[C@]1(O)CCC2C3CCC4=Cc5oncc5C[C@]4(C)C3CC[C@@]21C (stereo partly drawn) : fulfilled
CCNc1nc(Cl)nc(NCC)n1 : not fulfilled
CC(=O)NO : fulfilled

// switching to the query compound
Ask | Does this compound meet the criterion normalized growth < 1? CC1(C)C=Cc2cc3ccc(=O)oc3cc2O1
Reply | fulfilled

====

- test_method_notes: chemical genetic growth profiling, strain panel (AID 1159580);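 further: tested at 20 µM; growth read once vehicle control cultures reached saturation at 30 °C; 1 = growth at the plate median or of vehicle wells; lower values mean less growth of the strain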
- conditions: S. cerevisiae deletion strains, growth OD, locus YNL222W, strain SSU72
In all, about 5,500 compounds went through this assay and about 2,000 (36%) were called active. Not shown: some 18% with an inconclusive outcome. Rule as the data show it: active = normalized growth mostly below about 0.91 (no sharp cut-off); inconclusive = no clear call, values can overlap the other calls; inactive = mostly above about 0.92. This is one part of the list.
Can you answer with just one of these options? 1.0 (active), 0.0 (inactive)

O=C(Nc1cccnc1)c1cc2c(s1)-c1ccccc1CC2 : 0.0

Then this compound:
Ask | Please let me know the test result on file for O=C(Nc1cc2c(s1)-c1cc(Cl)ccc1SC2)Oc1ccccc1 .
Reply | 0.0

====

// reported normalized growth per item
- test_method_notes: chemical genetic growth profiling, strain panel (AID 1159580);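 further: tested at 20 µM; growth read once vehicle control cultures reached saturation at 30 °C; 1 = growth at the plate median or of vehicle wells; lower values mean less growth of the strain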
- conditions: S. cerevisiae deletion strains, growth OD, locus YLR418C, strain cdc73, hits give low values
The whole screen tested about 5,500 compounds, of which about 2,000 (36%) were called active. About 18% were inconclusive and are not listed. The list shows a part of the results.
Lab note: jot the number down without any unit.

CC[C@H]1CN2CCc3cc(OC)c(OC)cc3C2C[C@@H]1CC1NCCc2cc(OC)c(OC)cc21 (some centres not stated) : 0.997
CC(=O)CC1CCCCN1 (configuration not stated) : 1

Ask | normalized growth lookup needed for COc1cc2cc3c4cc(OC)c(OC)cc4cc[n+]3c(C)c2cc1OC , thanks.
Reply | 0.966

Ask | Data request, read-out normalized growth, for Cc1cc(=O)n(-c2ccccc2)n1C
Reply | 0.995

Ask | What value of normalized growth has been recorded for this entry: CNC(Cc1c[nH]c2ccccc12)C(=O)O (configuration not stated)
Reply | 0.983

Ask | Can you look up the measured normalized growth of COc1cnc(NS(=O)(=O)c2ccc(N)cc2)nc1 for me?
Reply | 0.99

====

- test_method_notes: chemical genetic growth profiling, strain panel (AID 1159580);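 further: tested at 20 µM; growth read once vehicle control cultures reached saturation at 30 °C; 1 = growth at the plate median or of vehicle wells; lower values mean less growth of the strain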
- conditions: S. cerevisiae deletion strains, growth OD, locus YKR001C, strain vps1, hits give low values
In all, about 5,500 compounds went through this assay and about 2,000 (36%) were called active. Another 18% or so got no clear call; they are omitted. This is one part of the list.
quantity_kind: normalized growth

CC(=O)[O][Hg][c]1ccccc1 : 0.0636 (active)
CCN(CC)CCNC(=O)c1cc(Cl)c(N)cc1OC : 1 (inactive)
CC(=O)N[C@@H](Cc1c[nH]c2ccccc12)C(=O)O : 1.02 (inactive)
CC[C@@H](CO)NC(=O)[C@@H]1C=C2c3cccc4[nH]cc(c34)C[C@H]2N(C)C1 : 0.947 (inactive)
CCNc1nc(Cl)nc(NCC)n1 : 1.02 (inactive)

Ask | I have this compound here, CO[C@H]1C[C@H](O[C@H]2[C@H](C)[C@@H](OC3O[C@H](C)C[C@H](N(C)C)[C@H]3OC(C)=O)[C@@H](C)C[C@]3(CO3)C(=O)[C@H](C)[C@@H](OC(C)=O)[C@@H](C)[C@@H](C)OC(=O)[C@@H]2C)O[C@@H](C)[C@@H]1OC(C)=O (stereo partly drawn) , and I need its recorded normalized growth.
Reply | 0.982 (inactive)

Ask | Recorded normalized growth of CC(NCCC(c1ccccc1)c1ccccc1)c1ccccc1 (stereo not drawn) , please.
Reply | 0.936 (inactive)

Ask | For CC(=O)OCC(=O)[C@@]12OC3(CCCC3)O[C@@H]1CC1C3CCC4=CC(=O)C=C[C@]4(C)[C@@]3(F)[C@@H](O)C[C@@]12C (stereo partly drawn) , what is its reported normalized growth?
Reply | 0.985 (inactive)
